Parameter: melting point. Scope: all listed entries.

Below are worked cases with known answers.
| compound | melting point |
| --- | --- |
| O=C1C2=C(CCCC2)C(O)N1c1ccc(Cl)cc1F (configuration not stated) | 178 to 179 °C |
| O=C(O)CN1C(=O)C(c2ccccc2)c2ccccc21 (configuration not stated) | 180 to 181 °C |
| COc1cc(Cl)c2c(=O)c(Br)coc2c1 | 176 to 177 °C |
| C=CCNC(=O)n1nc(O)cc1C | 80 to 83 °C |
| COc1ccc2c3c1OC1C(=O)CCC4(OC)C(C2)N(C)CCC314 (configuration not stated) | 140 to 142 °C |

Briefly, melting point measured for O=C(NC(=O)c1ccc2ncccc2c1)NC1CCN(Cc2ccc3ncccc3c2)CC1 : 202 to 204 °C

Briefly, melting point measured for COc1cc(Cl)cc(C)c1Nc1nc2c(Cl)ccc(C(=C(C)C)C(C)C)c2n1C : 166 to 168 °C

====

Parameter: melting point. Scope: all listed entries.

Below are worked cases with known answers.
| molecule | experimental-value |
| --- | --- |
| CC(C)(C)OC(=O)NCCNC(=O)c1cocn1 | 148 to 150 °C |
| COC(=O)c1cc2sccc2nc1C(=O)OC | 121 to 124 °C |

Now consider the entry below.
Briefly, melting point measured for CCOC(C)n1c(C)nc(-c2ccccc2)c1-c1ccccc1 (stereo not drawn) : 87 to 89 °C

====

measured-attribute: melting point

Below are worked cases with known answers.
| molecule | melting point |
| --- | --- |
| CCCCCN1CC[C@@H](c2ccc(Cl)cc2)[C@H](CO)C1 (racemic) | 125 to 128 °C |
| CCOC(=O)c1cn(NC)c2c(F)c(F)c(F)cc2c1=O | 189 °C |
| OCc1csc(NCc2ccccc2)n1 | 85 to 86.5 °C |

Briefly, melting point measured for NC(=O)c1ncccc1CCc1cccc(F)c1 : 102 to 104 °C

Briefly, melting point measured for COC1=CC=C2C3Cc4ccc(O)c5c4C2(CCN3C)C1O5 (centres undefined) : 114 to 116 °C

Briefly, melting point measured for N#CCc1cc(O)cc2cc(-c3ccc(O)c(F)c3)oc12 : 242 to 244 °C

Briefly, melting point measured for Cc1c2n(c3ccc(Br)cc13)CCCC2O (centres undefined) : 120 to 123 °C

Briefly, melting point measured for CCCC(C#N)(Cn1cncn1)c1ccc(F)cc1 (centres undefined) : 75 to 76 °C

====

Parameter: melting point. Scope: all listed entries.

Below are worked cases with known answers.
| molecule | melting point |
| --- | --- |
| N#Cc1ccc(N(Cc2ccc(O)cc2)n2ccnc2)cc1 | 180 °C |
| COC(=O)c1ccc(Cn2nc(-c3ccc(OC)cc3)c(-c3ccc(OC)cc3)cc2=O)cc1 | 186 to 187 °C |
| NC1=CC(=O)CC(c2ccsc2)C1 (configuration not stated) | 142 to 143 °C |

Briefly, melting point measured for Cc1cc(S(=O)(=O)Nc2ccc(N)cc2)c2c(C)ccc(C(C)C)cc1-2 : 88 to 90 °C

Briefly, melting point measured for Cc1cnc2c(cc(C(N)=O)c3nncc32)c(-c2ccccc2F)n1 : 323 to 324 °C

====

Parameter: melting point. Scope: all listed entries.

Below are worked cases with known answers.
| compound | melting point |
| --- | --- |
| COc1ccc2c(c1)C(CCNC(=O)c1ccc(Br)cc1)CC2 (stereo unspecified) | 142 to 143 °C |
| COc1cc2c(cc1OC)C(c1ccccc1OC)=NN=C(C)C2 | 119 to 121 °C |
| O=[N+]([O-])c1ccc2nnn(OS(=O)(=O)c3ccccc3)c2c1 | 122 to 124 °C |
| COc1ccnc(CSc2nc3cscc3[nH]2)c1 | 172 to 175 °C |
| Cc1nn(C)c2cnc(-c3ccc(C(F)(F)F)cc3)nc12 | 286 to 289 °C |

Now consider the entry below.
Briefly, melting point measured for COc1nc2cc(C(c3ccccc3)n3ccnc3)ccc2[nH]1 (stereo unspecified) : 110 °C

====

measured-attribute: melting point

| smiles-entry | melting point |
| --- | --- |
| CC(C)(C)OC(=O)Nc1ccc(C#Cc2ccccc2)cc1[N+](=O)[O-] | 146 to 148 °C |
| COC(=O)N=C1SCC(=O)N1c1c(-c2ccccc2)csc1NC(=O)CN(C)C | 124 to 126 °C |

Now consider the entry below.
Briefly, melting point measured for COC(=O)c1ccc(-c2nc3cc(C(=O)OC)ccc3o2)cc1 : 195 to 210 °C

====

Parameter: melting point. Scope: all listed entries.

Below are worked cases with known answers.
| compound | melting point |
| --- | --- |
| Nc1cccc(F)c1O | 115 °C |
| CCOC(=O)COc1cc2cc(C(C)O)sc2c(Cl)c1Cl (configuration not stated) | 101 to 103 °C |
| NC(=O)COc1ccccc1N | 117 °C |

Briefly, melting point measured for N#Cc1ccc(OCc2cccnc2)cc1OC(C(=O)O)c1ccccc1 (racemic) : 201 to 202 °C

Briefly, melting point measured for COC(=O)CCC(=O)c1ccc2c(c1)CC(CCCCNC(C)=O)C2 (configuration not stated) : 94 to 95 °C

====

Parameter: melting point. Scope: all listed entries.

Below are worked cases with known answers.
| compound | measured-attribute | experimental-value |
| --- | --- | --- |
| O=C(CCCl)NC12CCCC(C1)C1CCC2C1 (configuration not stated) | melting point | 192 to 195 °C |
| Cc1cc(C)cc(-c2cccc3ccccc23)c1 | melting point | 68 to 70 °C |
| COc1ccc(Cn2c(=O)n(C3OC(CO)C(O)C3O)c3nc(N)[nH]c(=O)c32)cc1 (configuration not stated) | melting point | > 230 °C |
| O=C(O)c1ccc2c(c1)oc(=O)c1cc(C(=O)O)ccc12 | melting point | > 300 °C |
| CCCC1(CCC)c2cc(-c3nc4cc(C)ccc4o3)ccc2-c2cc(OC)c(-c3nc4cc(C)ccc4o3)cc21 | melting point | 240 to 248 °C |

Briefly, melting point measured for CC(=O)NCCn1c(C)ccc1C : 106 to 107 °C

Briefly, melting point measured for CCc1nc2c(N)nc3ccc(OCc4ccccc4)cc3c2n1CCCCNS(C)(=O)=O : 186 to 191 °C

====

Parameter: melting point. Scope: all listed entries.

| compound | melting point |
| --- | --- |
| CCCCOc1ccc2c(c1)C(N(CCCO)S(C)(=O)=O)CC(C)(C)O2 (stereo not given) | 69 to 71 °C |

Briefly, melting point measured for CCNC1Cc2c[nH]c3ccc(OC)c(c23)C1(C)O (stereo not given) : 185 to 187 °C

Briefly, melting point measured for CC1(C)C(=O)Nc2ccc(-c3cc(F)cc(Cl)c3)cc21 : 206 to 207 °C

Briefly, melting point measured for Cc1nn2c(-c3ccncc3)ccnc2c1C#N : 220 to 221 °C

====

Parameter: melting point. Scope: all listed entries.
# value in °C; strip the unit string

| molecule | output-unit | experimental-value |
| --- | --- | --- |
| Cn1cnc2c([N+](=O)[O-])cc(Br)cc21 | °C | 198 |

Now consider the entry below.
Briefly, melting point measured for COc1cc2c(cc1OC)S(=O)CCC(C(=O)N1CCN(C(=O)c3cc(OC)c(OC)c(OC)c3)CC1)=C2 (stereo not drawn) : 138

====

Parameter: melting point. Scope: all listed entries.

| compound | melting point |
| --- | --- |
| CS(=O)(=O)c1cccc(-c2ccc3cnc(Nc4ccc(C5CCN(CC(N)=O)CC5)cc4)nn23)c1 | 254 °C |
| c1ccc(N2c3ccccc3[C@@H]3CNCC[C@H]32)cc1 | 74 to 76 °C |
| COC(=O)c1cc(OC)c(Cc2c(N)nc(N)nc2O)c(OC)c1 | 224 to 226 °C |
| CS(=O)(=O)c1ccc(/C(=C\C2CCCCCC2)C(=O)O)cc1 | 164 to 166 °C |
| c1ccc(COc2ccc(COc3ccc(CCCn4ccnc4)cc3)cn2)cc1 | 84 to 85 °C |

Now consider the entry below.
Briefly, melting point measured for O=Cc1ccccc1C(=O)c1ccc(Cl)cc1 : 112 to 113 °C

====

Parameter: melting point. Scope: all listed entries.

Below are worked cases with known answers.
| compound | melting point |
| --- | --- |
| O=C1N[C@H](C(=O)O)CSCCCCCCCC1CS (some centres undefined) | 169 to 173 °C |
| O=c1c2ccccc2ccc2cc(F)ccc12 | 119 to 123 °C |
| CC(=O)c1nnc(-c2ccc3occ(-c4cccc(OC(F)(F)F)c4)c3c2)o1 | 64 to 65 °C |
| CCOC(=O)C1=C(C)NC(N)(c2nc(-c3cccc(C(F)(F)F)c3)cs2)N=C1 (centres undefined) | 227 to 229 °C |
| O=C(O)C=C1CC(C(=O)OCc2ccccc2)Nc2cc(Cl)cc(Cl)c21 (racemic) | 210 to 212 °C |

Briefly, melting point measured for CNC(=O)c1cc(Cl)cc(C)c1N : 141 to 143 °C

Values from a melting point compilation (Tetko et al.; mined from patent text by program, amines drawn as free bases though some values may be those of a salt)
